molecular target: Histone deacetylase 2 (Homo sapiens, UniProt Q92769); assay: Inhibition of full-length recombinant human C-terminal GST tagged HDAC2 expressed in Sf9 insect cells using aminoluciferin peptide substrate at 100 nM preincubated for 3 hrs followed by substrate addition and measured after 30 mins by HDAC-Glo I/II chemiluminescence assay; settings: time 3.5 hrs
Sequence (Q92769 whole entry): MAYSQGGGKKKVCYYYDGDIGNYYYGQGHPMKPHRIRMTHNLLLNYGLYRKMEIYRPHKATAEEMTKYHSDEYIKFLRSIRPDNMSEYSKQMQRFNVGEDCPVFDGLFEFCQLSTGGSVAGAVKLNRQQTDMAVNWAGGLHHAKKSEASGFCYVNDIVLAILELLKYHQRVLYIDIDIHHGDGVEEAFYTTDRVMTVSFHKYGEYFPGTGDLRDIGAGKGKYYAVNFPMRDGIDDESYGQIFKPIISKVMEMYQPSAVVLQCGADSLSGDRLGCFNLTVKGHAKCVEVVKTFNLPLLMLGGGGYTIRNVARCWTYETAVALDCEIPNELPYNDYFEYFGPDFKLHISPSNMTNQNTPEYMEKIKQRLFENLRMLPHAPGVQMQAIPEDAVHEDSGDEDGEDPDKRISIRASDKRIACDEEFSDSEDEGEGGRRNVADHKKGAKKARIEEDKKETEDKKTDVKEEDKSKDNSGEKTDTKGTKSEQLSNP
PROPERTY_NAME: inhibition (%)

MOLECULE | READOUT_UNIT | EXPERIMENTAL_VALUE
Nc1ccc(-c2cccs2)cc1NC(=O)c1cccc(-c2cn(CCC34CC5CC(CC(C5)C3)C4)nn2)c1 | % | 9
Cc1cccc(CCn2cc(-c3ccc(C(=O)Nc4cc(-c5cccs5)ccc4N)s3)nn2)c1 | % | 20
Nc1ccc(-n2cc(CCC(=O)Nc3cc(-c4ccccc4)ccc3N)nn2)cc1 | % | 18
Nc1ccc(-c2cccnc2)cc1NC(=O)CCc1cn(CCC2CCCC2)nn1 | % | 0
Nc1ccc(-c2ccccc2)cc1NC(=O)CCc1cn(-c2cccc3ccccc23)nn1 | % | 0

---

Quick reference for inhibition among some molecules
target: Histone deacetylase 2 (Homo sapiens, UniProt Q92769); experiment: Inhibition of full-length recombinant human C-terminal GST tagged HDAC2 expressed in Sf9 insect cells using aminoluciferin peptide substrate at 100 nM preincubated for 3 hrs followed by substrate addition and measured after 30 mins by HDAC-Glo I/II chemiluminescence assay; details: time 3.5 hrs

MOLECULE | inhibition / %
Nc1ccc(-c2ccsc2)cc1NC(=O)CCc1cn(Cc2ccc(OC(F)(F)F)cc2)nn1 | 0
Nc1ccc(-c2cccs2)cc1NC(=O)c1ccc(-c2cn(Cc3ccc(-c4ccccc4)cc3)nn2)s1 | 0
Nc1ccc(-c2ccsc2)cc1NC(=O)c1cn(-c2ccc([N+](=O)[O-])cc2)nn1 | 0
Nc1ccc(-c2ccc(F)cc2)cc1NC(=O)CCc1cn(CC(=O)c2ccccc2)nn1 | 19
Nc1ccc(-c2cccnc2)cc1NC(=O)CCc1cn(CCc2ccccc2C(F)(F)F)nn1 | 0
Nc1ccc(-c2ccccc2)cc1NC(=O)CCc1cn(CCc2cccc([N+](=O)[O-])c2)nn1 | 30
Nc1ccc(-n2cc(-c3ccc(C(=O)Nc4cc(-c5cccs5)ccc4N)cc3)nn2)cc1 | 51
Nc1ccc(-c2cccs2)cc1NC(=O)c1ccc(-c2cn(Cc3ccc(C(=O)O)cc3)nn2)s1 | 61
Nc1ccc(-c2ccccc2)cc1NC(=O)CCc1cn(CCc2ccccc2)nn1 | 24
Nc1ccc(-c2ccsc2)cc1NC(=O)CCc1cn(CCCCCC(=O)O)nn1 | 0
Nc1ccc(-n2cc(C(=O)Nc3cc(-c4cccs4)ccc3N)nn2)cc1 | 10
Nc1ccc(-c2ccsc2)cc1NC(=O)c1cn(/C=C/c2ccccc2)nn1 | 5
Nc1ccc(-c2cccnc2)cc1NC(=O)CCc1cn(Cc2ccc3ccccc3n2)nn1 | 3
Nc1ccc(-c2cccs2)cc1NC(=O)c1ccc(-c2cn(CCc3cccc(F)c3)nn2)cc1 | 22
Nc1ccc(-c2ccc(F)cc2)cc1NC(=O)CCc1cn(CCc2ccc(Cl)cc2)nn1 | 3
Cc1ccc(CCn2cc(CCC(=O)Nc3cc(-c4cccnc4)ccc3N)nn2)cc1 | 18
Nc1ccc(-c2cccs2)cc1NC(=O)CCc1cn(Cc2ccc(Oc3ccccc3)cc2)nn1 | 6
Nc1ccc(-c2ccc(F)cc2)cc1NC(=O)CCc1cn(CCCCCCCC(=O)O)nn1 | 15
Nc1ccc(-c2ccc(F)cc2)cc1NC(=O)c1cn(CCc2ccccn2)nn1 | 16
Nc1ccc(-c2ccccc2)cc1NC(=O)c1cn(CCN2CCOCC2)nn1 | 0
Nc1ccc(-c2cccs2)cc1NC(=O)c1cn(CCc2ccc(C(F)(F)F)cc2)nn1 | 9
Cc1ccc(CCn2cc(CCC(=O)Nc3cc(-c4ccc(F)cc4)ccc3N)nn2)cc1 | 25
Nc1ccc(-c2ccccc2)cc1NC(=O)CCc1cn(CCc2ccccc2[N+](=O)[O-])nn1 | 13
Nc1ccc(-c2ccc(F)cc2)cc1NC(=O)CCc1cn(Cc2cccc3ccccc23)nn1 | 14
Nc1ccc(-c2cccs2)cc1NC(=O)c1cn(CCc2ccc([N+](=O)[O-])cc2)nn1 | 17
Nc1ccc(-c2cccs2)cc1NC(=O)c1ccc(-c2cn(CCc3ccc(Cl)cc3)nn2)s1 | 3
COc1ccccc1CCn1cc(C(=O)Nc2cc(-c3ccccc3)ccc2N)nn1 | 0
Nc1ccc(-c2ccc(F)cc2)cc1NC(=O)CCc1cn(CCN2CCOCC2)nn1 | 0
Nc1ccc(-c2ccc(F)cc2)cc1NC(=O)c1cn(CCc2cccc([N+](=O)[O-])c2)nn1 | 20
Nc1ccc(-c2cccs2)cc1NC(=O)CCc1cn(/C=C/c2ccccc2)nn1 | 24
Nc1ccc(-c2ccc(F)cc2)cc1NC(=O)CCc1cn(/C=C/c2ccccc2)nn1 | 3
Nc1ccc(-c2ccccc2)cc1NC(=O)c1cn(CCc2ccc(C(F)(F)F)cc2)nn1 | 0
Nc1ccc(-c2cccs2)cc1NC(=O)c1ccc(-c2cn(CCc3cccc([N+](=O)[O-])c3)nn2)cc1 | 25
Nc1ccc(-c2ccc(F)cc2)cc1NC(=O)c1cn(CC2CCCCC2)nn1 | 3
COc1ccc(CCn2cc(CCC(=O)Nc3cc(-c4ccccc4)ccc3N)nn2)cc1 | 17
Nc1ccc(-c2ccc(F)cc2)cc1NC(=O)CCc1cn(CCc2c[nH]c3ccccc23)nn1 | 30
Nc1ccc(-c2cccs2)cc1NC(=O)c1ccc(-c2cn(CCCCCCC(=O)O)nn2)s1 | 28
Nc1ccc(-c2cccs2)cc1NC(=O)c1ccc(-c2cn(CCc3cccc(Cl)c3)nn2)s1 | 6
